Consider the following compounds; for each one, report its inhibition.
biological target: Activated CDC42 kinase 1 (Homo sapiens); settings: at 0.1 µM;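 further: values are mean inhibition of TNK2, from the GSK PKIS screening dataset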
Express the result in % but write the number alone.

-- ask Which inhibition value belongs to `CCn1c(-c2nonc2N)nc2ccncc21` ?
-- reply -0.95

-- ask Need inhibition, item `COc1ccc(COc2ccc(Cc3cnc(N)nc3N)cc2OC)cc1`
-- reply 2.24

-- ask Entry `COc1ccc(-c2nn3ncccc3c2-c2ccnc(Nc3ccc(Cl)c(C(F)(F)F)c3)n2)cc1` has what inhibition?
-- reply 0.86

-- ask Request the reported inhibition associated with `COc1cc2ncn(-c3cc(O[C@H](C)c4ccccc4Cl)c(C(N)=O)s3)c2cc1OC`
-- reply 6.31

-- ask Please report the recorded inhibition for `CS(=O)(=O)CCNCc1ccc(-c2ccc3ncnc(Nc4ccc(OCc5ccccc5)c(Cl)c4)c3c2)o1` .
-- reply -0.1

-- ask # inhibition lookup, item `COc1cc(C)c(NC(=O)CN(C)C)cc1Nc1nc(Nc2cccc(F)c2C(N)=O)c2cc[nH]c2n1`
-- reply 1.18

-- ask Form field: reported inhibition of `Cc1ccc(C(=O)NC2CCCCC2)cc1-c1ccc(C(=O)NCC2CC2)cc1`
-- reply 2.3

-- ask Query (compound): `COc1ccc(-c2coc3ncnc(N)c23)cc1` ; field requested: inhibition
-- reply 0.34

-- ask State the recorded inhibition for this entry: CC1=C(C(=O)Nc2ccc3[nH]ncc3c2)C(c2ccc(F)cc2)NC(=O)N1 (stereo not given)
-- reply 0.84

-- ask What value of inhibition has been reported for the following compound? `CCn1c(-c2nonc2N)nc2c(N3CCCC3)nccc21`
-- reply -0.78

---

molecular target: Epidermal growth factor receptor (Homo sapiens) (UniProt P00533); conditions: at 1 µM;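 further: values are mean inhibition figures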
Sequence (P00533 whole entry): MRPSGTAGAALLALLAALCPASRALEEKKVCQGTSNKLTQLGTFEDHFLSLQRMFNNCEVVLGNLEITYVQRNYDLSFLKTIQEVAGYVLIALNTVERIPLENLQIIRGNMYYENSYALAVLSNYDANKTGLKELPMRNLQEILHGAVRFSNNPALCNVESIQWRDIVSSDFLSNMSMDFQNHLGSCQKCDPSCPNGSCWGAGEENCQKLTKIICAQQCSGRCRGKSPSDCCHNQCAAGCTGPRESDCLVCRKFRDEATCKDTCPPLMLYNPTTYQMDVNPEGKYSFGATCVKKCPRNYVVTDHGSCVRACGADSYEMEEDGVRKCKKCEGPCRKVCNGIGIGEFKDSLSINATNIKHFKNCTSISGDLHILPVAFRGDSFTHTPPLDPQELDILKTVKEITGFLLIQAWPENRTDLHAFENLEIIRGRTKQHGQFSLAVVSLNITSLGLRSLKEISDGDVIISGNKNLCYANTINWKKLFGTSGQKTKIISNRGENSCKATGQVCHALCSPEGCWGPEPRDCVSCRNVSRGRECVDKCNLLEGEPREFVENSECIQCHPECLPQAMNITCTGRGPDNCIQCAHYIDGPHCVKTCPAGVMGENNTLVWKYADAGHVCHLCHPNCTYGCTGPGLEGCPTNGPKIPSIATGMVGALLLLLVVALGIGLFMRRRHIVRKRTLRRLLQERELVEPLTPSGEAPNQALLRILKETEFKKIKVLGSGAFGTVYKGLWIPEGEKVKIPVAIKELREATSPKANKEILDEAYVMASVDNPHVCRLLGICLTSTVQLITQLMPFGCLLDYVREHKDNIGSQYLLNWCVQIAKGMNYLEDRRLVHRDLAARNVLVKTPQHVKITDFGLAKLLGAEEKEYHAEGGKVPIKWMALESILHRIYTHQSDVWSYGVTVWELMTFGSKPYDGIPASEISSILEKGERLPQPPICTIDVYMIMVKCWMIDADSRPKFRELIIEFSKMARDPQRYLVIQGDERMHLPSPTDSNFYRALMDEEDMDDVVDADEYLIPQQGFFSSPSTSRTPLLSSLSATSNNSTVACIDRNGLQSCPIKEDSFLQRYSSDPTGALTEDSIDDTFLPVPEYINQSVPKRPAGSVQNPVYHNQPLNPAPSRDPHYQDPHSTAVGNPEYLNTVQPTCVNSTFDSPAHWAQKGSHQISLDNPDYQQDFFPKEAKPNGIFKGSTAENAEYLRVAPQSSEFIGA
MEASUREMENT KIND: inhibition (%)
Write down the numeric answer in % and omit the unit.

-- ask For the compound shown here, `Nc1ncnc2occ(-c3ccc(NC(=O)Nc4cc(C(F)(F)F)cc(C(F)(F)F)c4)cc3)c12` , give the reported inhibition.
-- reply 0.39

-- ask Look up inhibition: `O=C1NC(=O)C(N2CCc3ccccc32)=C1c1ccc(Cl)cc1`
-- reply 3.22

-- ask Data request, read-out inhibition, for `O=C1NC(=O)C(c2cccc(Cl)c2)=C1Nc1ccc(O)c(Cl)c1`
-- reply 1.12

-- ask Please report the recorded inhibition for `COc1ccc(-c2coc3ncnc(N)c23)cc1` .
-- reply 2.37

-- ask Could you tell me which inhibition is on file for `COc1ccc(COc2ccc(Cc3cnc(N)nc3N)cc2OC)cc1` ?
-- reply 5.41

-- ask Recorded inhibition for `NS(=O)(=O)c1ccc(N/N=C2\C(=O)Nc3ccc(C(=O)NCCc4c[nH]cn4)cc32)cc1` , please?
-- reply 4.43

-- ask Need inhibition, item `[O-][S+]1CCN(Cc2ccc(-c3ccc4ncnc(Nc5ccc(OCc6ccccc6)c(F)c5)c4c3)o2)CC1`
-- reply 90.7

-- ask For the compound shown here, `CS(=O)(=O)CCNCc1ccc(-c2ccc3ncnc(Nc4ccc(OCc5cccc(F)c5)c(C(F)(F)F)c4)c3c2)o1` , give the reported inhibition.
-- reply 65.9

-- ask Look up inhibition: `O=C1NC(=O)C(c2ccc(Cl)cc2)=C1Nc1ccc(Cl)c(C(=O)O)c1`
-- reply 6.73

-- ask Fill in the blank: the reported inhibition of CC1=C(C(=O)Nc2ccc3[nH]ncc3c2)C(c2ccc(Cl)c(Cl)c2)CC(=O)N1 (stereo not given) is ____.
-- reply 8.22

-- ask inhibition lookup needed for `COc1ccc(-c2nn3ncccc3c2-c2ccnc(Nc3ccc(Cl)c(C(F)(F)F)c3)n2)cc1` , thanks.
-- reply 3.67

-- ask For `CN1CCC(C(=O)Nc2n[nH]c3nnc(-c4ccccc4)cc23)CC1` , what is its reported inhibition?
-- reply 7.57

-- ask // returns reported inhibition for input `CCn1c(-c2nonc2N)nc2cnc(Oc3cccc(NC(=O)c4ccc(OCCN5CCOCC5)cc4)c3)cc21`
-- reply 3

-- ask Endpoint output: inhibition of `Cc1ccc(C(=O)NC2CCCCC2)cc1-c1ccc(C(=O)NCC2CC2)cc1` . Value?
-- reply 14.3

-- ask # query: inhibition of entry `CCn1c(-c2nonc2N)nc2cncc(C(=O)N3CC[C@H](N)C3)c21`
-- reply 2.64

-- ask Requested read-out: inhibition. Entry: `COc1cc2ncn(-c3cc(OCc4ccccc4Cl)c(C(N)=O)s3)c2cc1OC`
-- reply 8.81

-- ask // lookup inhibition for `NS(=O)(=O)c1cccc(-c2ccc3c(NC(=O)C4CC4)n[nH]c3c2)c1`
-- reply 0.71

-- ask I have this compound here, `Nc1nc(-c2ccccn2)c(-c2ccc3ncccc3n2)s1` , and I need its recorded inhibition.
-- reply 1.23

-- ask Reported inhibition for `c1cnn2ncc(-c3ccnc(Nc4ccc5c(c4)OCCO5)n3)c2c1` : what is it?
-- reply 4.28

-- ask Given `COc1cc2ncn(-c3cc(OCc4ccccc4C(F)(F)F)c(C(N)=O)s3)c2cc1OC` , state its recorded inhibition.
-- reply 3.5

---

biological target: Sphingosine kinase 1 (Homo sapiens) (UniProt Q9NYA1); conditions: at 0.1 µM;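 further: mean percent inhibition of SPHK1 activity, measured within the GSK PKIS screening panel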
Sequence (Q9NYA1 whole entry): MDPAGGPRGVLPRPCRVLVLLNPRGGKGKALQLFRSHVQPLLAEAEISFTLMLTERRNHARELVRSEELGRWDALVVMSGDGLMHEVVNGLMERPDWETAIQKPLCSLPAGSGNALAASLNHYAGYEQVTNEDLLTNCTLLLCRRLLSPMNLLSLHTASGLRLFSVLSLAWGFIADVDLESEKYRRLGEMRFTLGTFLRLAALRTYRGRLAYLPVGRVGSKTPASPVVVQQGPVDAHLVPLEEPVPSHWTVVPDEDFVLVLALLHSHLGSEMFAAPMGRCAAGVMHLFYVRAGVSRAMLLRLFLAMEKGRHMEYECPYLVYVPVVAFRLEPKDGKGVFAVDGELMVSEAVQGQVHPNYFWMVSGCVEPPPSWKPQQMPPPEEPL
MEASUREMENT KIND: inhibition (%)
Just the number please, in %, no unit attached.

-- ask // query inhibition value for entry `CNC(=O)c1cncc(/C=C/c2c(Cl)cccc2Cl)c1`
-- reply -1.45

-- ask Reported inhibition, compound `CS(=O)(=O)CCNCc1ccc(-c2ccc3ncnc(Nc4ccc(OCc5cccc(F)c5)c(C(F)(F)F)c4)c3c2)o1` : ____
-- reply -0.87

-- ask Reported inhibition, compound `N#Cc1c(NC(=O)c2cccc3ccccc23)sc2c1CCCC2` : ____
-- reply -0.7

-- ask What value of measured inhibition is listed for `CCCN1CCC(Oc2cc(Nc3nc(Nc4cccc(F)c4C(N)=O)c4cc[nH]c4n3)c(OC)cc2Cl)CC1` ?
-- reply 0.48

-- ask Can you share its inhibition? I mean this compound: COc1ccc2cc(-c3c(-c4ccncc4)nc(-c4ccc([S+](C)[O-])cc4)n3C)ccc2c1 (stereo not given)
-- reply 0.08

-- ask Reported inhibition for `Cn1cc(C=C2C(=O)Nc3cccnc32)c2ccccc21` : what is it?
-- reply -3.04

-- ask Recorded inhibition for `O=C(Nc1n[nH]c2nc(-c3ccco3)c(Br)cc12)C1CC1` , please?
-- reply 0.46

-- ask Any idea what inhibition was measured for `Fc1cccc(COc2ccc(Nc3ncnc4sc(-c5cccs5)cc34)cc2Cl)c1` ?
-- reply -1.15

-- ask Look up inhibition for this compound: `Cc1ccc(NC(=O)c2ccnc(N3CCCC3)c2)cc1-c1ccc(C(=O)NCC2CC2)cc1`
-- reply -0.32

-- ask Can you share its inhibition? I mean this compound: `Nc1ncnc2occ(-c3ccc(NC(=O)Nc4cccc(C(F)(F)F)c4)cc3)c12`
-- reply 0.57

---

Hi there, I'd appreciate the recorded inhibition for every entry that follows.
target: MAP kinase-interacting serine/threonine-protein kinase 1 (Homo sapiens) (UniProt Q9BUB5); conditions: at 1 µM;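 further: each value is an averaged percent inhibition of MKNK1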
Sequence (Q9BUB5 whole entry, looked up): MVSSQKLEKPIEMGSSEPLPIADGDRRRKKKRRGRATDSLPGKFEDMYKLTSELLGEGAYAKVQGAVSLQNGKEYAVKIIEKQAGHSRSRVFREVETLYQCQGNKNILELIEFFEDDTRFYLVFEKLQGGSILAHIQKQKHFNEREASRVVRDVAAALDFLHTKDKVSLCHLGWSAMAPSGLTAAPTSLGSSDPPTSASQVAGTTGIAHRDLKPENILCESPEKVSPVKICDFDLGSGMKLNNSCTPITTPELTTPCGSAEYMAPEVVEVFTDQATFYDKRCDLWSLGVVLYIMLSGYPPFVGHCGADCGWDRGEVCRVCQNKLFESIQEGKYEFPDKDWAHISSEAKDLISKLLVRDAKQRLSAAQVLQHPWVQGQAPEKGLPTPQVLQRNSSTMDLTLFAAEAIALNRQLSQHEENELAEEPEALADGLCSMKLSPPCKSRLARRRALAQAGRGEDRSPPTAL
Numeric answer plus unit only.

-- ask Which inhibition is reported for this compound? `CCN1CCC(CC(=O)Nc2n[nH]c3nc(-c4cccs4)c(Br)cc23)CC1`
-- reply 76.6%

-- ask Using the record for `COC(=O)Nc1nc2cc(Oc3ccc(NC(=O)Nc4cccc(C(=O)O)c4)cc3)ccc2[nH]1` , report its inhibition.
-- reply 8.3%

-- ask Could you share which inhibition value was measured for `Cc1nnc(-c2ccc(C)c(-c3ccc(C(=O)Nc4cccc(C#N)c4)cc3)c2)o1` ?
-- reply 4.88%

-- ask Which inhibition is reported for this compound? `CCn1c(-c2nonc2N)nc2cnc(Oc3cccc(NC(=O)c4ccc(OCCN5CCOCC5)cc4)c3)cc21`
-- reply 13.3%

-- ask Using the record for `COc1ccccc1Nc1ncc(-c2ccccc2)o1` , report its inhibition.
-- reply 5.88%

-- ask Name the reported inhibition value associated with the compound `NS(=O)(=O)c1ccc(N/N=C2\C(=O)Nc3ccc(C(=O)NCCc4c[nH]cn4)cc32)cc1`
-- reply 4.11%

-- ask Consider the compound shown here: `O=C1Nc2ccc(C(=O)c3ccco3)cc2C1=Cc1cc(Cl)c(O)c(Cl)c1` What is its recorded inhibition?
-- reply 11.5%

-- ask # query: inhibition of entry `COc1ccc(-c2ccncc2)cc1C(N)=O`
-- reply 5.97%

-- ask Any idea what inhibition was measured for `NCc1ccc(-c2nc(-c3ccc(Cl)c(O)c3)c(-c3ccncc3)[nH]2)cc1` ?
-- reply 6.58%

---

molecular target: RAF proto-oncogene serine/threonine-protein kinase (Homo sapiens); settings: at 1 µM;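 further: values are the mean percent inhibition of CRAF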
MEASUREMENT KIND: inhibition
Could you write the number and then its unit?

-- ask Endpoint output: inhibition of `CCn1c(-c2nonc2N)nc2ccncc21` . Value?
-- reply 14%

-- ask Look at this compound and give its reported inhibition. `CCn1c(-c2nonc2N)nc2cncc(C(=O)N3CCNCC3)c21`
-- reply -2.31%

-- ask Which measured inhibition value corresponds to CC1=C(C(=O)Nc2ccc3[nH]ncc3c2)C(c2ccc(Cl)c(Cl)c2)CC(=O)N1 (stereo not given) ?
-- reply 2.44%

-- ask Please give the measured inhibition for this compound: `Cc1ccc(NC(=O)c2ccnc(N3CCCC3)c2)cc1-c1ccc(C(=O)NCC2CC2)cc1`
-- reply -6.49%

-- ask # get_value(readout='inhibition', item= `Cc1nn(C)c2cc(N(C)c3ccnc(Nc4cccc(S(N)(=O)=O)c4)n3)ccc12` )
-- reply 3.83%
